conditions: 2 Days at +50°C, 1.0 mg/mL in water;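 note: purity and concentration determined by HPLC on aqueous solutions kept in a stability chamber, with samples analyzed at day 0 and after incubation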
The entries below come with measured Forced degradation Δ Purity values attached.
Return type: number; implicit unit %.

Exercise: Can you share its Forced degradation Δ Purity? I mean this compound: C=C1NC(=O)[C@H](Cc2c[nH]c3ccccc23)NC(=O)[C@H](NC(=O)[C@H](CCCCN)NC(=O)[C@@H](N)[C@@H](C)CC)CSC[C@@H](C(=O)N[C@H]2C(=O)N3CCC[C@H]3C(=O)NCC(=O)N[C@H](C(=O)N[C@@H](C)C(=O)N[C@@H](CC(=O)O)C(=O)N/C(=C\C)C(=O)NCC(=O)N[C@@H]3CSC[C@@H]4NC(=O)[C@H](Cc5ccc(O)cc5)NC(=O)[C@@H](CS/C=C\NC4=O)NC(=O)[C@H](CC(N)=O)NC(=O)[C@H](Cc4ccccc4)NC3=O)CS[C@H]2C)NC(=O)[C@H](CC(C)C)NC1=O [OG703]
Solution: -1.74

Exercise: Another compound to check: C=C1NC(=O)[C@H](Cc2c[nH]c3ccccc23)NC(=O)[C@H](NC(=O)[C@H](CCCCN)NC(=O)[C@@H](N)CC(C)C)CSC[C@@H](C(=O)N[C@H]2C(=O)N3CCC[C@H]3C(=O)NCC(=O)N[C@H](C(=O)N[C@@H](C)C(=O)N[C@@H](C)C(=O)N/C(=C\C)C(=O)NCC(=O)N[C@@H]3CSC[C@@H]4NC(=O)[C@H](Cc5ccc(O)cc5)NC(=O)[C@@H](CS/C=C\NC4=O)NC(=O)[C@H](CC(N)=O)NC(=O)[C@H](Cc4ccccc4)NC3=O)CS[C@H]2C)NC(=O)[C@H](CC(C)C)NC1=O [OG713]
Solution: -1.51

Exercise: Another compound to check: C=C1NC(=O)[C@H](Cc2c[nH]c3ccccc23)NC(=O)[C@H](NC(=O)[C@H](CCCCN)NC(=O)[C@@H](N)[C@@H](C)CC)CSC[C@@H](C(=O)N[C@H]2C(=O)N3CCC[C@H]3C(=O)NCC(=O)N[C@H](C(=O)N[C@@H](C)C(=O)N[C@@H](CC(N)=O)C(=O)N/C(=C\C)C(=O)NCC(=O)N[C@@H]3CSC[C@@H]4NC(=O)[C@H](Cc5ccccc5)NC(=O)[C@@H](CS/C=C\NC4=O)NC(=O)[C@H](CC(N)=O)NC(=O)[C@H](Cc4ccccc4)NC3=O)CS[C@H]2C)NC(=O)[C@H](CC(C)C)NC1=O [OG718]
Solution: -4.90

---

The entries below come with measured Forced degradation Δ Purity values attached.
conditions: 7 Days at 37°C, 1.0 mg/mL in water
Return type: number; implicit unit %.

Exercise: Can you share its Forced degradation Δ Purity? I mean this compound: C=C1NC(=O)[C@H](Cc2c[nH]c3ccccc23)NC(=O)[C@H](NC(=O)[C@H](CCCCN)NC(=O)[C@@H](N)CC(C)C)CSC[C@@H](C(=O)N[C@H]2C(=O)N3CCC[C@H]3C(=O)NCC(=O)N[C@H](C(=O)N[C@@H](C)C(=O)N[C@@H](CC(=O)O)C(=O)N/C(=C\C)C(=O)NCC(=O)N[C@@H]3CSC[C@@H]4NC(=O)[C@H](Cc5ccc(O)cc5)NC(=O)[C@@H](CS/C=C\NC4=O)NC(=O)[C@H](CC(N)=O)NC(=O)[C@H](Cc4ccccc4)NC3=O)CS[C@H]2C)NC(=O)[C@H](CC(C)C)NC1=O [OG705]
Solution: -0.61

Exercise: Another compound to check: C=C1NC(=O)[C@H](Cc2c[nH]c3ccccc23)NC(=O)[C@H](NC(=O)[C@H](CCCCN)NC(=O)[C@@H](N)[C@@H](C)CC)CSC[C@@H](C(=O)N[C@H]2C(=O)N3CCC[C@H]3C(=O)NCC(=O)N[C@H](C(=O)N[C@@H](C)C(=O)N[C@@H](CC(=O)O)C(=O)N/C(=C\C)C(=O)NCC(=O)N[C@@H]3CSC[C@@H]4NC(=O)[C@H](Cc5ccc(O)cc5)NC(=O)[C@@H](CS/C=C\NC4=O)NC(=O)[C@H](CC(N)=O)NC(=O)[C@H](Cc4ccccc4)NC3=O)CS[C@H]2C)NC(=O)[C@H](CC(C)C)NC1=O [OG703]
Solution: -1.04
